tested-target: T1, HLA class I molecule A02.01
T1 construct: Purified MHC class I complex; also called HLA-A02:01
assay-overview: pMHC-I dissociation half-life, 125I-b2m
observation-type: Stability (T1/2 (h))
Your answer is read as h, so omit the unit and give the number.

Worked cases, Stability (T1/2 (h)) given:
                                   binder  measured
0  KITEQEKDFL (also called PIK3CA, E542K)         0
1      VIIEYCCYG (also called KIT, T670I)       0.5

Given item LLPIPPLSPS (also called MYC, T58I) , the value recorded as its Stability (T1/2 (h)) is 0

The measured Stability (T1/2 (h)) associated with QTGVMICAYL (also called PTEN, R130Q) reads 0
